Task for the reader: assign each of the following compounds its reported EC50.
- TARGET_OF_ASSAY: human Famesoid X receptor ligand-binding domain/Gal4 DNA binding domain chimera (Homo sapiens (Human))
- TEST: Cellular FXR beta-lactamase reporter assay (FXR-UAS-bla HEK 293T)
- Assay type: cell-based
- CONDITION_INFO: read-out: FXR pEC50 (converted)
Report the figure in nM without appending any unit label.

-- ask Please report the recorded EC50 for O=C(Cc1c(-c2c(Cl)cccc2Cl)noc1C1CC1)O[C@H]1C[C@H]2CC[C@@H](C1)N2c1nc2c(F)cc(C(=O)O)cc2s1 [Compound I-32] .
-- reply 398

-- ask Moving on to O=C(O)c1cc(F)c2nc(N3[C@@H]4CC[C@H]3C[C@@H](OC(=O)c3c(-c5c(Cl)cccc5Cl)noc3C3CCC3)C4)sc2c1 [Compound I-24]
-- reply 31.6

-- ask Moving on to CC(C)(C)c1onc(-c2c(Cl)cccc2Cl)c1C(=O)OC1C[C@H]2CC[C@@H](C1)N2c1nc2c(F)cc(C(=O)O)cc2s1 (single isomer, unassigned) [Compound I-25]
-- reply 25.1

-- ask Moving on to Cn1c(N2[C@@H]3CC[C@H]2C[C@@H](OC(=O)c2c(-c4c(Cl)cccc4Cl)noc2C2CC2)C3)nc2c(F)cc(C(=O)O)cc21 [Compound I-31]
-- reply 398

-- ask Moving on to O=C(O)c1cc(F)c2nc(N3[C@@H]4CC[C@H]3C[C@@H](OC(=O)c3c(-c5c(Cl)cccc5Cl)noc3C3(F)CC3)C4)sc2c1 [Compound I-27]
-- reply 3.98

-- ask Moving on to O=C(O)c1cc(F)c2nc(N3[C@@H]4CC[C@H]3C[C@@H](OC(=O)c3c(-c5c(Cl)cccc5OC(F)F)noc3C3CC3)C4)sc2c1 [Compound I-15]
-- reply 39.8

###

- TARGET_OF_ASSAY: human Famesoid X receptor ligand-binding domain/Gal4 DNA binding domain chimera (Homo sapiens (Human), UniProt Q96RI1)
- Sequence (Q96RI1 262-486, change not shown): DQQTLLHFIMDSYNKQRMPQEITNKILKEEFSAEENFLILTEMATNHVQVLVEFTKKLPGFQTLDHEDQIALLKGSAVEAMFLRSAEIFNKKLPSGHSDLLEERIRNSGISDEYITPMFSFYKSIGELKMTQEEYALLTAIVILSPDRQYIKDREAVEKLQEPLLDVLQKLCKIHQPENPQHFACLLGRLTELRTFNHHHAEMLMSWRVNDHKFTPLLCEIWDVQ
- TEST: Cellular FXR beta-lactamase reporter assay (FXR-UAS-bla HEK 293T)
- Assay type: cell-based
- CONDITION_INFO: HEK-293T; read-out: % Efficacy
PROPERTY_MEASURED: Emax (%)
Report the figure in % without appending any unit label.

-- ask Please report the recorded Emax for O=C(O)c1cc(F)c2nc(N3[C@@H]4CC[C@H]3C[C@@H](OC(=O)c3c(C5CCC6(CC5)CC6)noc3C3CC3)C4)sc2c1 [Compound I-19] .
-- reply 79

-- ask Moving on to O=C(O)c1cc(F)c2nc(N3[C@@H]4CC[C@H]3C[C@@H](OC(=O)c3c(-c5c(Cl)cccc5OC(F)F)noc3C3CC3)C4)sc2c1 [Compound I-15]
-- reply 108

-- ask Moving on to O=C(O)c1cc(F)c2nc(N3[C@@H]4CC[C@H]3C[C@@H](OC(=O)c3c(-c5ccccc5)noc3C3CC3)C4)sc2c1 [Compound I-13]
-- reply 93

-- ask Moving on to O=C(O)c1cc(F)c2nc(N3[C@@H]4CC[C@H]3C[C@@H](OC(=O)c3c(-c5c(Cl)cccc5Cl)noc3C3(F)CC3)C4)sc2c1 [Compound I-27]
-- reply 108

-- ask Moving on to Cn1c(N2[C@@H]3CC[C@H]2C[C@@H](OC(=O)c2c(-c4c(Cl)cccc4Cl)noc2C2CC2)C3)nc2c(F)cc(C(=O)O)cc21 [Compound I-31]
-- reply 100

-- ask Moving on to CC(C)(C)c1onc(-c2c(Cl)cccc2Cl)c1C(=O)OC1C[C@H]2CC[C@@H](C1)N2c1nc2c(F)cc(C(=O)O)cc2s1 (single isomer, unassigned) [Compound I-25]
-- reply 100

The reported numbers originate from patent US11718619B2.
